Catalogue of IC50 values
# system_under_test: Alpha glucosidase (Homo sapiens, UniProt O43451+P10253+P14410+Q2M2H8)
# protocol: Inhibition of alpha-glucosidase (unknown origin) using p-nitrophenyl-alpha-d-glucopyranoside as substrate preincubated for 5 mins followed by substrate addition measured after 5 mins
# Type: protein assay

Reference set (8 entries):
COc1cc(-c2nnc(/N=C/c3ccc(O)cc3)s2)ccc1OCc1ccccc1
2.3 to 25 µM
COc1ccc(/C=N/NC(=O)c2cc3ccccc3oc2=O)c(O)c1
1.1 to 36 µM
Nc1nnc(-c2ccc([N+](=O)[O-])cc2)s1
2.3 to 38 µM
Nc1nnc(-c2ccccc2[N+](=O)[O-])s1
2.3 to 38 µM
O=C(N/N=C/c1ccccc1O)c1cc2ccccc2oc1=O
1.1 to 36 µM
Nc1nnc(-c2cc3ccccc3cc2O)s1
2.3 to 38 µM
O=C(N/N=C/c1ccccc1)c1cc2ccccc2oc1=O
1.1 to 36 µM
O=C(N/N=C/c1cccc(F)c1)c1cc2ccccc2oc1=O
1.1 to 36 µM

For the molecule `O=C(N/N=C/c1ccc([N+](=O)[O-])cc1)c1cc2ccccc2oc1=O` , what IC50 is on record?
1.1 to 36 µM

Requested field: IC50. Item: `O=C(N/N=C/c1ccccc1F)c1cc2ccccc2oc1=O`
1.1 to 36 µM

Suppose we examine the molecule `O=[N+]([O-])c1ccccc1/C=N/c1nnc(-c2ccc(Cl)cc2)s1` ; what IC50 value has been reported?
2.3 to 25 µM

Would you kindly share the measured IC50 for `COc1ccc(/C=N/NC(=O)c2cc3ccccc3oc2=O)cc1` ?
1.1 to 36 µM

* * *

IC50 values for the compounds below.
# protocol: Inhibition of yeast alpha-glucosidase using p-nitrophenyl-alpha-d-glucopyranoside as substrate preincubated for 10 mins followed by substrate addition measured after 30 mins
# Parameters: species or system Saccharomyces cerevisiae

Cc1cc2nc(-c3ccc(C(=O)NNC(=S)Nc4ccc(Br)cc4)cc3)[nH]c2cc1C
35 to 297 µM
O=[N+]([O-])c1cccc(-c2nn(-c3ccccc3)cc2-c2nc(-c3ccccc3)c(-c3ccccc3)[nH]2)c1
2.7 to 23 µM
Cc1cc2nc(-c3ccc(C(=O)NNC(=S)Nc4ccc([N+](=O)[O-])cc4)cc3)[nH]c2cc1C
35 µM
O=c1oc2ccccc2cc1-c1nn(-c2ccccc2)cc1-c1nc(-c2ccccc2)c(-c2ccccc2)[nH]1
2.7 µM
Cc1nn(-c2ccc(Nc3cccc(Cl)c3)nn2)c(C)c1[N+](=O)[O-]
19 µM

Item `COc1ccc(-c2nn(-c3ccccc3)cc2-c2nc(-c3ccccc3)c(-c3ccccc3)[nH]2)cc1` has what recorded IC50?
2.7 to 23 µM

Given the entry `COc1ccc(/C=N/NC(=O)c2ccc(-c3nc4cc(C)c(C)cc4[nH]3)cc2)c(O)c1` , report its measured IC50.
8.4 to 9.9 µM

For the compound `Cc1cccc(NC(=S)NNC(=O)c2ccc(-c3nc4cc(C)c(C)cc4[nH]3)cc2)c1` , what IC50 is on record?
35 to 297 µM

Would you kindly share the measured IC50 for `O=[N+]([O-])c1ccc(-c2nn(-c3ccccc3)cc2-c2nc(-c3ccccc3)c(-c3ccccc3)[nH]2)cc1` ?
2.7 to 23 µM

Any idea what its IC50 is? The compound is `O=c1oc2ccc(Br)cc2cc1-c1nn(-c2ccccc2)cc1-c1nc(-c2ccccc2)c(-c2ccccc2)n1-c1ccc(Br)cc1`
2.5 to 46 µM

Which value of IC50 has been reported for `Cc1cc2nc(-c3ccc(C(=O)NNC(=S)Nc4cccc(Br)c4)cc3)[nH]c2cc1C` in the records?
35 to 297 µM

Any idea what its IC50 is? The compound is `Cc1cc2nc(-c3ccc(C(=O)NNC(=S)Nc4cccc(F)c4)cc3)[nH]c2cc1C`
35 to 297 µM

# lookup: IC50 of `O=[N+]([O-])c1ccc(-n2cc(-c3nc(-c4ccccc4)c(-c4ccccc4)[nH]3)c(-c3ccccc3)n2)cc1`
2.7 to 23 µM

What does the record list as IC50 for `Clc1ccc(-c2nn(-c3ccccc3)cc2-c2nc(-c3ccccc3)c(-c3ccccc3)[nH]2)cc1` ?
2.7 to 23 µM

Which IC50 value is on record for `Cc1cc2nc(-c3ccc(C(=O)N/N=C/c4ccco4)cc3)[nH]c2cc1C` ?
8.4 to 179 µM

Look up IC50 for this compound: `COc1ccc(/C=N/NC(=O)c2ccc(-c3nc4cc(C)c(C)cc4[nH]3)cc2)cc1OC`
8.4 to 179 µM

May I ask what IC50 has been recorded for `Cc1ccc(NC(=S)NNC(=O)c2ccc(-c3nc4cc(C)c(C)cc4[nH]3)cc2)cc1` ?
35 to 297 µM

Reported IC50, compound `COc1ccc(/C=N/NC(=O)c2ccc(-c3nc4cc(C)c(C)cc4[nH]3)cc2)cc1` : ____
8.4 to 179 µM
